Values were extracted from paper PMC10618370.

target: E. coli MurD (Escherichia coli, UniProt P14900); experiment: MurD inhibition assay (Malachite green); assay type: biochemical; conditions: 0.25 h; residual activity at 100 µM compound; mean ± SD of three independent experiments; read-out: RA (%) @ 100 µM MurD
Sequence (P14900 whole entry): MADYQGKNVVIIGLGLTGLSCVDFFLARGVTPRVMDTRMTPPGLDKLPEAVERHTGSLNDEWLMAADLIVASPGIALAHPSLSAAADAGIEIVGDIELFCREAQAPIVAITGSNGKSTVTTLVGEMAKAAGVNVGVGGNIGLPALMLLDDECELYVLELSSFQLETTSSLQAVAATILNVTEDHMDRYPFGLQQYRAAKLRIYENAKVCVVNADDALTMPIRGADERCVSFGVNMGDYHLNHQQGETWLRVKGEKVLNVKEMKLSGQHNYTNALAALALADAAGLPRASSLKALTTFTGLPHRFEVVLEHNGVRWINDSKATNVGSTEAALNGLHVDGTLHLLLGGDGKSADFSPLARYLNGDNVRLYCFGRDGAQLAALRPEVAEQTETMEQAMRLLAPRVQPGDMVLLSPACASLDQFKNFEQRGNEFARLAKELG
Reported Metric: remaining activity at 100 µM (%)
Give bare numbers, in %.

Use the examples below as a reference point.
- Compound: "COc1cc([C@@H]2[C@H]3CO[C@@]4(O)C(=O)[C@@H]2C=C([C@H]2Oc5cc(O)cc(O)c5C(=O)[C@@H]2O)[C@@H]34)ccc1O [Compound 24, silydianin]"
  Test Target: "E. coli MurD (Escherichia coli, UniProt P14900)"
  Result Value: 95
- Compound: "O=c1c(O[C@@H]2O[C@H](CO)[C@@H](O)[C@H](O)[C@H]2O)c(-c2ccc(O)c(O)c2)oc2cc(O)cc(O)c12 [Compound 8]"
  Test Target: "E. coli MurD (Escherichia coli, UniProt P14900)"
  Result Value: 100
- Compound: "Oc1cc(O)c2c(c1)O[C@H](c1ccc(O)c(O)c1)[C@@H](O)[C@H]2O [Compound 20, Leucocyanidin]"
  Test Target: "E. coli MurD (Escherichia coli, UniProt P14900)"
  Result Value: 91
- Compound: "O=C1C[C@@H](c2ccc(O)cc2)Oc2cc(O)cc(O)c21 [Compound 5]"
  Test Target: "E. coli MurD (Escherichia coli, UniProt P14900)"
  Result Value: 100

I have 3 compounds here; please give me remaining activity at 100 µM for each one.
1. O=c1c(O)c(-c2cc(O)c(O)c(O)c2)oc2cc(O)cc(O)c12 [Compound 12, myricetin]
2. CC1OC(Oc2c(-c3cc(O)c(O)c(O)c3)oc3cc(O)cc(O)c3c2=O)C(O)C(O)C1O (stereo not shown) [Compound 11]
3. CC(C)=CCc1c(O)cc(O)c2c1O[C@H](c1ccc(O)cc1)CC2=O [Compound 3]

1: 87; 2: 89; 3: 100
